- System: ER-alpha MCF7
- testDetails: ER-alpha MCF7 HCS EC50; stated as measured by in vitro cell proliferation assays of Examples 902 and 903
- Type: cell-based
- conditionSet: Homo sapiens, MCF7, MCF7 cells; Table 1
- Experimental: The CellTiter-Glo® Luminescent Cell Viability Assay is a homogeneous method to determine the number of viable cells in culture based on quantitation of the ATP present, which signals the presence of metabolically active cells. […] Day 5—Develop Plates, Thaw Cell Titer Glo Buffer at room temperature: Remove Cell Plates from 37° C. and equilibrate to room temperature for about 30 minutes. […] Read luminescence on Analyst HT Plate Reader (half second per well). […]
pEC50: −log10 of the molar value.
reportedProperty: pEC50

molecule=C[C@@H](CO)CN1[C@H](c2c(F)cc(OCCN3CC(CF)C3)cc2F)c2[nH]c3ccccc3c2C[C@H]1C targetofassay="ER-alpha MCF7" obsvalue=8.98

P. CC(C)C(=O)N1C(c2c(F)cc(OCCN3CC(CF)C3)cc2F)c2[nH]c3ccccc3c2CC1(C)C (stereo not shown)
Q. C[C@@H]1Cc2c([nH]c3ccccc23)[C@@H](c2ncc(OCCN3CC(CF)C3)cc2F)N1CC(C)(C)F
R. C[C@@H]1Cc2c([nH]c3ccccc23)[C@@H](c2c(F)cc(OCCN3CC(CF)C3)cc2F)N1CC1COC1
# rank by pEC50, ascending (min first) Reply with the item labels sorted in the order that was asked for.
P, R, Q
(P: 7.13, R: 7.64, Q: 10.04)

---

- Test system: ER-alpha MCF7
- testDetails: ER-alpha MCF7 HCS EC50; stated as measured by in vitro cell proliferation assays of Examples 902 and 903
- Type: cell-based
- conditionSet: Homo sapiens, MCF7, MCF7 cells; Table 2
pEC50: −log10 of the molar value.
reportedProperty: pEC50

Known results for compounds:
compound=C[C@@H]1Cc2c([nH]c3ccccc23)[C@@H](c2ccc(NC3CN(CCCF)C3)cc2F)N1C[C@@](C)(F)CO obsvalue=9.30
compound=C[C@@H]1Cc2c([nH]c3ccccc23)[C@@H](c2c(F)cc(OCCN3CC(CF)C3)cc2F)N1CC(C)(C)O obsvalue=9.19
compound=C[C@@H]1Cc2c([nH]c3ccccc23)[C@@H](c2c(F)cc(OCCN3CC(CF)C3)cc2F)N1C[C@H](C)c1ccccc1 obsvalue=8.70

a. C[C@@H]1Cc2c([nH]c3ccccc23)[C@@H](c2c(F)cc(OCCN3CC(CF)C3)cc2F)N1C[C@H](CO)CF
b. C[C@@H]1Cc2c([nH]c3ccccc23)[C@@H](c2ccc(NCCN3CC(CF)C3)cc2)N1CC(C)(F)CO (stereo partly drawn)
Lower pEC50: a or b ? When you have decided, please share the label of that item.
b

---

- System: ER-alpha MCF7
- testDetails: ER-alpha MCF7 HCS EC50; stated as measured by in vitro cell proliferation assays of Examples 902 and 903
- Type: cell-based
- conditionSet: Homo sapiens, MCF7, MCF7 cells; Table 2
pEC50: −log10 of the molar value.
reportedProperty: pEC50

compound=CC(C)(F)CN1[C@@H](c2c(F)cc(OCCN3CC(CF)C3)cc2F)c2[nH]c3ccccc3c2CC1(C)C targetofassay="ER-alpha MCF7" reportedproperty=pEC50 obsvalue=7.51
compound=C[C@@H]1Cc2c([nH]c3ccccc23)[C@@H](c2c(F)cc(NC3CN(CCCF)C3)cc2F)N1C[C@](F)(C#N)CO targetofassay="ER-alpha MCF7" reportedproperty=pEC50 obsvalue=10.59
compound=C[C@@H]1Cc2c([nH]c3ccccc23)[C@@H](c2ccc(OCCN3CC(CF)C3)cc2F)N1S(C)(=O)=O targetofassay="ER-alpha MCF7" reportedproperty=pEC50 obsvalue=9.72
compound=C[C@H]1Cc2c([nH]c3ccc(F)cc23)[C@H](c2c(F)cc(OCCN3CC(CF)C3)cc2F)N1CC(F)(F)CO targetofassay="ER-alpha MCF7" reportedproperty=pEC50 obsvalue=8.05
compound=C[C@@H]1Cc2c([nH]c3ccccc23)[C@@H](c2c(F)cc(OC3CN(CC4(F)CC4)C3)cc2F)N1CC(C)(C)F targetofassay="ER-alpha MCF7" reportedproperty=pEC50 obsvalue=9.50
compound=C[C@@H]1Cc2c([nH]c3ccccc23)[C@@H](c2c(F)cc(OCCN3CC(CF)C3)cc2F)N1CC(C)(C)CO targetofassay="ER-alpha MCF7" reportedproperty=pEC50 obsvalue=9.00
compound=C[C@@H]1Cc2c([nH]c3ccccc23)[C@@H](c2ccc([C@@H](O)C3CN(CCCF)C3)cc2)N1CC(C)(C)F targetofassay="ER-alpha MCF7" reportedproperty=pEC50 obsvalue=9.73
compound=C[C@@H]1Cc2c([nH]c3ccccc23)[C@@H](c2c(F)cc(OCCN3CC(CF)C3)cc2F)N1C[C@@H](CO)CF targetofassay="ER-alpha MCF7" reportedproperty=pEC50 obsvalue=9.89
compound=C[C@@H]1Cc2c([nH]c3cccc(F)c23)[C@@H](c2c(F)cc(NC3CN(CCCF)C3)cc2F)N1CC(F)(F)F targetofassay="ER-alpha MCF7" reportedproperty=pEC50 obsvalue=9.92
compound=COC(CCN1CC(Oc2cc(F)c([C@@H]3c4[nH]c5ccccc5c4C[C@@H](C)N3CC(C)(C)F)c(F)c2)C1)OC targetofassay="ER-alpha MCF7" reportedproperty=pEC50 obsvalue=10.51

1. C[C@@H]1Cc2c([nH]c3ccccc23)[C@@H](c2c(F)cc(OC3(C)CN(CCCF)C3)cc2F)N1CC(C)(C)F
2. C[C@H]1Cc2c([nH]c3cccc(F)c23)[C@H](c2c(F)cc(OCCN3CC(CF)C3)cc2F)N1CC(C)(C)F
3. C[C@@H]1Cc2c([nH]c3ccccc23)[C@@H](c2ccc(OC3CN(CCCF)C3)c(Cl)c2)N1CC(C)(C)F
4. C[C@@H]1Cc2c([nH]c3ccccc23)[C@@H](c2c(F)cc(OC3CN(CCCF)C3)cc2F)N1C[C@H](C)C(=O)O
Rank descending by pEC50. Reply with the item labels sorted in the order that was asked for.
1, 4, 3, 2

P. CC1(C)Cc2c([nH]c3ccccc23)[C@@H](c2c(F)cc(NC3CN(CCCF)C3)cc2F)N1CC(F)(F)CO
Q. C[C@@H]1Cc2c([nH]c3ccccc23)[C@@H](c2c(F)cc(OCCN3CC(CF)C3)cc2F)N1C(=O)CC1CCC1
R. CC(C)[S@@+]([O-])N1[C@H](c2ccc(OCCN3CC(CF)C3)cc2)c2[nH]c3ccccc3c2C[C@H]1C
S. CC(CO)C(=O)N1[C@H](c2c(F)cc(OCCN3CC(CF)C3)cc2F)c2[nH]c3ccccc3c2C[C@H]1C (stereo partly drawn)
Rank descending by pEC50. Reply with the item labels sorted in the order that was asked for.
P, S, Q, R
